- System: 565232-114-T-J1-PDC complex spheroid viability;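 further: spheroids exposed to compounds for 7 days before readout; 100% = DMSO vehicle wells with luminescence normalized to vehicle control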
- measurement_protocol: Anticancer human tumor 565232-114-T-J1-PDC patient-derived bladder carcinoma cell line growth inhibition [CLK]
- settings: second compound 3.16 µM; first compound 0.316 µM; active compounds read low
For each of the molecules below, state its viability, T/C.
Respond with the bare value in %.

Query: # value lookup — system 565232-114-T-J1-PDC complex spheroid viability, readout viability, T/C, item CC(CO)NC(=O)c1cc(-c2ccc(Cl)cc2)nn(-c2cnn(C)c2)c1=O (stereo not drawn) + CN1CCN(c2cc(C(=O)Nc3cc4cc(-c5cnn(C)c5)ccc4cn3)ccn2)CC1;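 further: spheroids exposed to compounds for 7 days before readout; 100% = DMSO vehicle wells with luminescence normalized to vehicle control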
Reply: 4.15

Query: # value lookup — system 565232-114-T-J1-PDC complex spheroid viability, readout viability, T/C, item O=C(c1cc(Cc2n[nH]c(=O)c3ccccc23)ccc1F)N1CCN(C(=O)C2CC2)CC1 + CN1CCN(c2cc(C(=O)Nc3cc4cc(-c5cnn(C)c5)ccc4cn3)ccn2)CC1;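 further: spheroids exposed to compounds for 7 days before readout; 100% = DMSO vehicle wells with luminescence normalized to vehicle control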
Reply: 1.69

Query: # value lookup — system 565232-114-T-J1-PDC complex spheroid viability, readout viability, T/C, item Nc1ccn(C2OC(CO)C(O)C2(F)F)c(=O)n1 (stereo not drawn) + CN1CCN(c2cc(C(=O)Nc3cc4cc(-c5cnn(C)c5)ccc4cn3)ccn2)CC1;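 further: spheroids exposed to compounds for 7 days before readout; 100% = DMSO vehicle wells with luminescence normalized to vehicle control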
Reply: 0.18
